- assayed system: ALDH2 (Homo sapiens)
- Construct: histidine-tag (N); made in house; host or cells: bacterial expression (pETite vector, IPTG induction)
- Sequence (P05091 18-517): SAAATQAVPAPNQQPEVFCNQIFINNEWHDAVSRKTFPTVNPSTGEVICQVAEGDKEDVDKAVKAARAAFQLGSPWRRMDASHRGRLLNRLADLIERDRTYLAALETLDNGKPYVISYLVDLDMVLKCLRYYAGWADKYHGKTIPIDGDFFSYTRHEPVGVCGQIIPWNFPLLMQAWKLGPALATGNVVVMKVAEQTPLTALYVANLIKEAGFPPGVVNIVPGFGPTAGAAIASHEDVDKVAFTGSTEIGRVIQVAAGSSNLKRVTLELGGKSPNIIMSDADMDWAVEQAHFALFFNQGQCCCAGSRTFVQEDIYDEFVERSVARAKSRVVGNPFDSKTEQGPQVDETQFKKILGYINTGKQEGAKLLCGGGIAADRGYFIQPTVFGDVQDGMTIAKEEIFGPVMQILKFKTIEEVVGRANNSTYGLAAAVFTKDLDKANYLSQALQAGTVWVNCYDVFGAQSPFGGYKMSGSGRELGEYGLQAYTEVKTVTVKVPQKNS
- assay text: Purified ALDH2 assay with propanal, NADH fluorescence
- Type: biochemical
- recorded conditions: purified enzyme
endpoint: IC50

* Cc1ccc(NC(=O)c2cn(-c3ccccc3)nc2-c2ccc(F)cc2)cc1 | 18.8 µM

## Task Would you kindly share the measured IC50 for `CN(C)c1ccc(C(=O)N2CCN(c3ccc([N+](=O)[O-])c(N4CCCC4)c3)CC2)cc1` ?
## Result > 100 µM

## Task Would you kindly share the measured IC50 for `Cn1cccc1C(=O)N1CCN(c2ccc(NC(=O)CCl)c(N3CCCC3)c2)CC1` ?
## Result 3.5 µM

## Task Would you kindly share the measured IC50 for `CCc1ccc(C(=O)N2CCN(c3ccc([N+](=O)[O-])c(N4CCCC4)c3)CC2)s1` ?
## Result 52 µM

## Task Would you kindly share the measured IC50 for `COc1ccsc1C(=O)N1CCN(c2ccc([N+](=O)[O-])c(N3CCCC3)c2)CC1` ?
## Result 86.4 µM

## Task Would you kindly share the measured IC50 for `O=C(Nc1cccc(F)c1)c1cn(-c2ccccc2)nc1-c1ccc([N+](=O)[O-])cc1` ?
## Result 146 µM

## Task Would you kindly share the measured IC50 for `CCOc1ccsc1C(=O)N1CCN(c2ccc([N+](=O)[O-])c(N3CCCC3)c2)CC1` ?
## Result 97.3 µM

## Task Would you kindly share the measured IC50 for `CC(=O)n1cccc1C(=O)N1CCN(c2ccc([N+](=O)[O-])c(N3CCCC3)c2)CC1` ?
## Result 61.6 µM

## Task Would you kindly share the measured IC50 for `O=C(Nc1cccc(O)c1)c1cn(-c2ccccc2)nc1-c1ccc([N+](=O)[O-])cc1` ?
## Result 95.2 µM

## Task Would you kindly share the measured IC50 for `CS(=O)(=O)c1ccc(-c2nn(-c3ccccc3)cc2C(=O)Nc2cccc(Cl)c2)cc1` ?
## Result > 25 µM

## Task Would you kindly share the measured IC50 for `CS(=O)(=O)c1ccc(-c2nn(-c3cccc(F)c3)cc2C(=O)Nc2ccc(C#N)cc2)cc1` ?
## Result 35.9 µM

## Task Would you kindly share the measured IC50 for `CCS(=O)(=O)c1ccc(-c2nn(-c3ccccc3)cc2C(=O)Nc2cccc(F)c2)cc1` ?
## Result 133 µM

## Task Would you kindly share the measured IC50 for `Cc1cc(C(=O)N2CCN(c3ccc([N+](=O)[O-])c(N4CCCC4)c3)CC2)sc1C` ?
## Result 79.8 µM

## Task Would you kindly share the measured IC50 for `COc1ccc(C(=O)N2CCN(c3ccc([N+](=O)[O-])c(N4CCCC4)c3)CC2)cc1` ?
## Result > 100 µM

## Task Would you kindly share the measured IC50 for `CC(=O)Oc1ccccc1NC(=O)c1cn(-c2ccccc2)nc1-c1ccc(S(C)(=O)=O)cc1` ?
## Result 112 µM

## Task Would you kindly share the measured IC50 for `O=C(c1ccc(O)s1)N1CCN(c2ccc([N+](=O)[O-])c(N3CCCC3)c2)CC1` ?
## Result 2.07 µM

====

- assayed system: ALDH1A1 (Homo sapiens)
- Sequence (P00352 1-501): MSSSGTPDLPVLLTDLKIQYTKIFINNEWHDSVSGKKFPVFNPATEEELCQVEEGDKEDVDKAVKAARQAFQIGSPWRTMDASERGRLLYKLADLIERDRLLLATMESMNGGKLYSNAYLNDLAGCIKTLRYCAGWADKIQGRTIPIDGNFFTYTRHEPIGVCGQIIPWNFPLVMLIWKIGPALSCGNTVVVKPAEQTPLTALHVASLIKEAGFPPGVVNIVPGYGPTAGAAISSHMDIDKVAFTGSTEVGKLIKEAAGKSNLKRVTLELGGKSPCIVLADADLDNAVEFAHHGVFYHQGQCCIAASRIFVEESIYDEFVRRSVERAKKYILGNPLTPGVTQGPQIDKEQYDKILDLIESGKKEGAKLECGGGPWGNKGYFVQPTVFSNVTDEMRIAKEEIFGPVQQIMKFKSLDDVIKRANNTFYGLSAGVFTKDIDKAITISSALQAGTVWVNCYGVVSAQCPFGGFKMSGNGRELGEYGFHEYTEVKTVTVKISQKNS
- assay text: Inhibitor screening using purified enzymes: ALDH1A1 activity, retinoic acid production by HPLC
- Format: biochemical
- recorded conditions: purified enzyme
endpoint: IC50 (µM)
Numeric only. Scale: µM

• C=C(C(=O)OC)c1ccc(-c2nn(-c3ccc(C#N)cc3)cc2C(=O)Nc2cccc(F)c2)cc1 = 3.61
• Cn1cccc1C(=O)N1CCN(c2ccc(NC(=O)C(Cl)Cl)c(N3CCCCC3)c2)CC1 = 0.023
• CC(=O)n1cccc1C(=O)N1CCN(c2ccc([N+](=O)[O-])c(N3CCCC3)c2)CC1 = 1.07

## Task Recall the recorded IC50 for `Cn1cccc1C(=O)N1CCN(c2ccc(NC(=O)C(Cl)Cl)c(N3CCCC3)c2)CC1` with ALDH1A1 (Homo sapiens) and state it.
## Result 0.23

Source listed as patent US11548875B2.
